# credit: ChEMBL document CHEMBL3611999

- testedSystem: Neuronal acetylcholine receptor; alpha4/beta2 (Rattus norvegicus, UniProt P09483+P12390)
- Sequence (P09483 whole entry): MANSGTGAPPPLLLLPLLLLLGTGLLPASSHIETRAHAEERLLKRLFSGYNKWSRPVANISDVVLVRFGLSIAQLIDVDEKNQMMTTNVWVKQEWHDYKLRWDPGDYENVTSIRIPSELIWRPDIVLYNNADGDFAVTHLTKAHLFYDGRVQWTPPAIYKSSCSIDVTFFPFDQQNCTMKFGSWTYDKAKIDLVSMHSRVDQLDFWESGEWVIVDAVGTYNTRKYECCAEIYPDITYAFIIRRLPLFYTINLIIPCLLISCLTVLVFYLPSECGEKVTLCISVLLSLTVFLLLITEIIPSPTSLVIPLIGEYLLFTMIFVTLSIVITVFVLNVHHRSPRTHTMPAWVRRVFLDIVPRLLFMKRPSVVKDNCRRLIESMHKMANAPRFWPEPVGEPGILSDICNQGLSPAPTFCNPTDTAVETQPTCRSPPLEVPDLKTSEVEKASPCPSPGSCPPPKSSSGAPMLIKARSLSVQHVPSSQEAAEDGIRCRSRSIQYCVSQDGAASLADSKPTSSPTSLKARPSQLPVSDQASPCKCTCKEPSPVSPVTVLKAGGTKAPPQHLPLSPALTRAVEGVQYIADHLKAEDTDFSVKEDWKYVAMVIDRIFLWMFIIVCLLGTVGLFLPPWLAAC
- Sequence (P12390 whole entry): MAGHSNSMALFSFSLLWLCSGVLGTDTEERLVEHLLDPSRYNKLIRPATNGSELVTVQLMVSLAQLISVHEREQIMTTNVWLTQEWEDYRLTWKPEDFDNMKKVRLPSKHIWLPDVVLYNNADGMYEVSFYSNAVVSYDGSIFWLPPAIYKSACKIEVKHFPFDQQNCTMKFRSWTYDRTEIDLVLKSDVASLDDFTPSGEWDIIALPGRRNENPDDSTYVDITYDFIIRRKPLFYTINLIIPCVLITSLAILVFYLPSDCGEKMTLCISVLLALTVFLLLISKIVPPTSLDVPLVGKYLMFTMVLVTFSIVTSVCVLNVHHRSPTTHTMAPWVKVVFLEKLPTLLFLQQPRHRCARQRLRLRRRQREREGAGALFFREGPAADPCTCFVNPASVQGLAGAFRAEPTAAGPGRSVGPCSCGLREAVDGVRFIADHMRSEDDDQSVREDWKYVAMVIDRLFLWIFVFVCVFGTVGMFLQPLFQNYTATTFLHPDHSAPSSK
- measurementProtocol: Displacement of [3H]epibatidine from immunoimmobilized alpha4beta2 nAChR in Sprague-Dawley rat striatal membranes by liquid scintillation counting
Kindly state Ki for each of the entries shown.
Use nM as the unit, but write only the number.

Data request, read-out Ki, for CN1CCC[C@H]1c1ccc[n+](CCCCCCCCCCNCC2CCc3ccc(O)cc3O2)c1 (mixture of isomers)
1060

Data request, read-out Ki, for CN1CCC[C@H]1c1ccc[n+](CCCCCNCC2CCc3ccc(O)cc3O2)c1 (mixture of isomers)
2270

Data request, read-out Ki, for "CCCCCCCCCCCC[n+]1cccc([C@@H]2CCCN2C)c1"
1410

Data request, read-out Ki, for CN1CCC[C@H]1c1ccc[n+](CCCCCCCCCCCCNCC2CCc3ccc(O)cc3O2)c1 (mixture of isomers)
2750

Data request, read-out Ki, for "CCCCCC[n+]1cccc([C@@H]2CCCN2C)c1"
4710

Data request, read-out Ki, for CN1CCC[C@H]1c1ccc[n+](CCCCCCNCC2CCc3ccc(O)cc3O2)c1 (mixture of isomers)
109

Data request, read-out Ki, for "CCCCC[n+]1cccc([C@@H]2CCCN2C)c1"
3940

Data request, read-out Ki, for "CCCCCCCCCC[n+]1cccc([C@@H]2CCCN2C)c1"
8690
